# TGT: HassOR31/HassORco (Helicoverpa assulta, UniProt A0A7D3UMA0)
# Construct: with Odorant receptor coreceptor
# Sequence (A0A7D3UMA0 1-395): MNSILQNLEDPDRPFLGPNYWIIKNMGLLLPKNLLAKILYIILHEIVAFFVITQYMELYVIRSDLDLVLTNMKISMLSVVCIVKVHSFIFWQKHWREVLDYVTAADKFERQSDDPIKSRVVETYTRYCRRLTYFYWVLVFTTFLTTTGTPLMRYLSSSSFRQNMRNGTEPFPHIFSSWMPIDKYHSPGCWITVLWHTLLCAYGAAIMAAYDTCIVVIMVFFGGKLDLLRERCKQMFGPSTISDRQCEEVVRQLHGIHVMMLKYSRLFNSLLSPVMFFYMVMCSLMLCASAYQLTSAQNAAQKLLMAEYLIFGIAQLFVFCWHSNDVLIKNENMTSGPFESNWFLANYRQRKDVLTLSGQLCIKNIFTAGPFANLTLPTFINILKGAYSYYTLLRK
# Sequence (A7UGE1 1-473 partner): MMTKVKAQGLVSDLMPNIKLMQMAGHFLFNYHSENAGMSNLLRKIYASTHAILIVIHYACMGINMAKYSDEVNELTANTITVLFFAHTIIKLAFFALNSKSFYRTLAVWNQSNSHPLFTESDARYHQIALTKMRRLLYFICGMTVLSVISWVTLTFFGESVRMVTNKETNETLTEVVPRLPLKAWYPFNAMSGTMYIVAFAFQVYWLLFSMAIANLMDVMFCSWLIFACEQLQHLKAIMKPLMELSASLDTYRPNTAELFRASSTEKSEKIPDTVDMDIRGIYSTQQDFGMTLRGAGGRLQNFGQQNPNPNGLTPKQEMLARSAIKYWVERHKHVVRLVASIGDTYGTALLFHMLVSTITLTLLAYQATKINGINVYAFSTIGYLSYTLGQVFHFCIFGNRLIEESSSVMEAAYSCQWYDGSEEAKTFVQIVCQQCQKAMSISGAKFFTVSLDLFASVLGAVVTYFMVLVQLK
# METHOD: two-electrode voltage clamp, Xenopus oocytes, inward current
# Format: cell-based
EXPERIMENTAL_ENDPOINT: EC50 (µM)
A number alone suffices; assume µM.

For CC/C=C\CCOC(=O)CCC [Z-3-hexenyl butyrate] , what is its reported EC50?
16.1
